Tested on: cancer cell lines
Assay: Cancer cell proliferation activity (CellTiterGlo, 72 h)
Assay type: cell-based
Settings: 72 h, HSS78T cell line, 72 h; read-out: IC50
MEASUREMENT_NAME: IC50 (nM)

- C[C@]1(CO)O[C@@H](n2cnc3c(N)nc(F)nc32)C[C@@H]1O [Cpd. No. 126]: 820

A: Nc1ccn([C@@H]2O[C@H](CO)[C@@H](O)C2(F)F)c(=O)n1 [gemcitabine, reference compound]
B: CC(C)C[C@]1(CO)O[C@@H](n2cnc3c(N)nc(F)nc32)C[C@@H]1O [Cpd. No. 133]
Hi team, can someone confirm which has the larger IC50: A or B ? Thanks. Refer to your chosen item by its label in the answer.
B
(B: 3710 nM, A: 3.8 nM)
